method: Ratio of drug level in mouse blood to plasma
Type: ADME, cell-free
outcome-measure: blood plasma ratio
Lab note: jot the number down without any unit.

blood plasma ratio lookup needed for `Cc1ncccc1-c1cnc(NCc2c(F)ccc3c2CCO3)n2cnnc12` , thanks.
1.03

###

target-desc: Cytochrome P450 2C9 (Homo sapiens)
Sequence (P11712 whole entry): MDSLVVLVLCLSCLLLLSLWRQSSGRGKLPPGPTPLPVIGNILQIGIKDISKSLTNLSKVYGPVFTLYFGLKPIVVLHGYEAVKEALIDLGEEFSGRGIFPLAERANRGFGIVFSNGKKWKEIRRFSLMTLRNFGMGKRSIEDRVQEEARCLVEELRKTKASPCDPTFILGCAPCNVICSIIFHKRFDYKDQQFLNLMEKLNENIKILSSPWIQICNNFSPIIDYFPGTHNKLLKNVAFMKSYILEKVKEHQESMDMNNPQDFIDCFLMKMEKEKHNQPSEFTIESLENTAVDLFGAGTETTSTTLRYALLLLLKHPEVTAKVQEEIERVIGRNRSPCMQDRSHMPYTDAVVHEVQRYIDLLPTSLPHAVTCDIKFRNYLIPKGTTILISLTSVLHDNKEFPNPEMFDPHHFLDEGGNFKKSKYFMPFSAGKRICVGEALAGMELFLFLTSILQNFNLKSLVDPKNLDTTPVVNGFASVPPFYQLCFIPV
method: Inhibition of CYP2C9 human liver microsomes using diclofenac as substrate incubated for 15 mins by LC-MS/MS analysis
Type: ADME, Microsome
outcome-measure: IC50

Given the entry `Cc1ncccc1-c1cnc(NCc2c(F)ccc3c2CCO3)n2cnnc12` , report its measured IC50.
> 18 µM

###

method: Metabolic stability in dog microsomes assessed as intrinsic clearance
Format: ADME, Canis lupus familiaris, Microsome
study-conditions: read-out: CLH
molecules and their reported microsomal CLint
State just the number; it will be interpreted in µL/min/mg.

# test-smiles, units-text, microsomal CLint
measured = [
    ("Cc1ncccc1-c1cnc(NCc2c(F)ccc3c2CCO3)n2cnnc12", "µL/min/mg", 91),
]

Please find the next molecule below.
Any idea what its microsomal CLint is? The molecule is `COc1cccc(F)c1CNc1ccc(-c2cnc(C)nc2C)c2nncn12`
10
